Molecular target: human GLP-1R (Homo sapiens, UniProt P43220)
Sequence (P43220 24-463): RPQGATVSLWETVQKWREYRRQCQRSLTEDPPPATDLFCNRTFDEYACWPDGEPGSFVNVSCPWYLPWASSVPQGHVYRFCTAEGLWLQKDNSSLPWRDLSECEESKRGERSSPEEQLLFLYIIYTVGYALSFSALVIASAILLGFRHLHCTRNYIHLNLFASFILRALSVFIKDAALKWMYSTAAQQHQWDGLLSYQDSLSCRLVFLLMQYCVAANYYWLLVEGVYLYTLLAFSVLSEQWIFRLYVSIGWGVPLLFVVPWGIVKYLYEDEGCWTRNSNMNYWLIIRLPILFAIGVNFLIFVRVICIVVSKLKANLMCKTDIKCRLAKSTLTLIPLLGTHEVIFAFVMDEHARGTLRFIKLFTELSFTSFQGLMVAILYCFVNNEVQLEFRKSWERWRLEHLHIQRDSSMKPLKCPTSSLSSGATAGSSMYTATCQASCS
Assay: Human GLP-1 Receptor HEK293 cell cAMP assay, 581 fmol/mg GLP-1R expression density
Type: cell-based
Parameters: expressed in transfected cells; host or cells: HEK293 clonal cell line
Details: HEK293 cell line with 581 fmol/mg expression density of GLP-1R; percent of maximal response to GLP-1(7-36)NH2; arithmetic mean; read-out: Emax % (SEM, n), intracellular cAMP response
TEST READOUT: Emax (%)

Request: Kindly indicate its recorded Emax. Item: COCCOc1cc(C(=O)O)cc2c1nc(Cc1ccc3cc1COCCc1cc(C#N)ccc1COc1ccc(F)c-3n1)n2C[C@@H]1CCO1 [Example 49]
Result: 112

Request: Kindly indicate its recorded Emax. Item: COc1ccc(-c2ccc3c(c2)CCCOc2cc(ccc2Cc2nc4ccc(C(=O)O)cc4n2C[C@@H]2CCO2)-c2cccc(n2)OC3)cn1 [Example 29]
Result: 92.4

Request: Kindly indicate its recorded Emax. Item: COc1cc(-c2nnn[nH]2)cc2c1nc(Cc1ccc3cc1OCCCc1cc(C#N)ccc1COc1cccc-3n1)n2C[C@@H]1CCO1 [Example 12]
Result: 81.8

Request: Kindly indicate its recorded Emax. Item: CNCCOc1cc(C(=O)O)cc2c1nc(Cc1ccc3cc1COCCc1cc(Cl)ccc1COc1cccc-3n1)n2C[C@@H]1CCO1 [Example 57]
Result: 76.2

Request: Kindly indicate its recorded Emax. Item: COCCOc1cc(C(=O)O)cc2c1nc(Cc1cc(F)c3cc1CCOCc1cc(ccc1C#N)COc1cccc-3n1)n2C[C@@H]1CCO1 [Example 48]
Result: 108

Request: Kindly indicate its recorded Emax. Item: Cn1nccc1-c1ccc2c(c1)CCCOc1cc(ccc1Cc1nc3ccc(C(=O)O)cc3n1C[C@@H]1CCO1)-c1cccc(n1)OC2 [Example 31]
Result: 104
